From: patent US12280121B2

Recorded half-life values for a group of molecules are listed next.
Assay: Human hepatocyte clearance (HHEP CL)
Assay type: in vitro ADME
Design: dose or concentration left out as unconfirmed
Details: both sexes; human hepatocytes, 90 min incubation; read-out: HHEP (T1/2)

IN: Tell me the measured half-life of `CC[C@@]1(O)C(=O)OCc2c1cc1n(c2=O)Cc2c-1nc1cc(F)c(C)c3c1c2[C@](C)(NCCO)CC3.Cl` , please.
OUT: 1.37 h

Okay, next one:
IN: Tell me the measured half-life of `CC[C@@]1(O)C(=O)OCc2c1cc1n(c2=O)Cc2c-1nc1cc(F)c(C)c3c1c2[C@@](C)(NCCO)CC3.Cl` , please.
OUT: 2.17 h

----------
Assay: PAMPA (Parallel Artificial Membrane Permeability Assay)
Assay type: physicochemical
Details: pH 5
OUTCOME MEASURE: Papp

IN: Tell me the measured Papp of CC[C@@]1(O)C(=O)OCc2c1cc1n(c2=O)Cc2c-1nc1cc(F)c(C)c3c1c2[C@@H](N)CC3.CS(=O)(=O)O [Exatecan, reference compound] , please.
OUT: 37.2 ×10⁻⁶ cm/s

----------
Assay: Human liver microsome clearance (HLM CL)
Type: in vitro ADME
Conditions: human, microsomes
Structures can show the parent of a compound that is named as a salt.
MET if CLint scaled is below 40 mL/min/kg. NOT MET if not; exact matches included in NOT MET.

IN: Check if CLint scaled falls below 40 mL/min/kg for CC[C@@]1(O)C(=O)OCc2c1cc1n(c2=O)Cc2c-1nc1cc(F)c(C)c3c1c2[C@](C)(OCCO)CC3 (single isomer, unassigned) [Compound 14-92] .
OUT: MET

IN: Check if CLint scaled falls below 40 mL/min/kg for CC[C@@]1(O)C(=O)OCc2c1cc1n(c2=O)Cc2c-1nc1cc(F)c(C)c3c1c2[C@](C)(N)CC3 (single isomer, unassigned) [Compound 8-72, hydrochloride] .
OUT: MET

IN: Check if CLint scaled falls below 40 mL/min/kg for CC[C@@]1(O)C(=O)OCc2c1cc1n(c2=O)Cc2c-1nc1cc(F)c(C)c3c1c2[C@@H](OCCO)CC3 (single isomer, unassigned) [Compound 5-48] .
OUT: MET

IN: Check if CLint scaled falls below 40 mL/min/kg for CC[C@@]1(O)C(=O)OCc2c1cc1n(c2=O)Cc2c-1nc1cc(F)c(C)c3c1c2[C@](C)(O)CC3 (single isomer, unassigned) [Compound 13-85] .
OUT: NOT MET

IN: Check if CLint scaled falls below 40 mL/min/kg for CC[C@@]1(O)C(=O)OCc2c1cc1n(c2=O)Cc2c-1nc1cc(F)c(C)c3c1c2[C@H](O)CC3 (single isomer, unassigned) [Compound 3-34] .
OUT: MET

IN: Check if CLint scaled falls below 40 mL/min/kg for CC[C@@]1(O)C(=O)OCc2c1cc1n(c2=O)Cc2c-1nc1cc(F)c(C)c3c1c2[C@@](C)(NC(=O)CO)CC3 [Compound 9-74] .
OUT: MET

IN: Check if CLint scaled falls below 40 mL/min/kg for CC[C@@]1(O)C(=O)OCc2c1cc1n(c2=O)Cc2c-1nc1cc(F)c(C)c3c1c2[C@](C)(NC(=O)CO)CC3 [Compound 10-75] .
OUT: MET

IN: Check if CLint scaled falls below 40 mL/min/kg for CC[C@@]1(O)C(=O)OCc2c1cc1n(c2=O)Cc2c-1nc1cc(F)c(C)c3c1c2[C@H](OCCO)CC3 (single isomer, unassigned) [Compound 5-47] .
OUT: MET

Further cases:
IN: Check if CLint scaled falls below 40 mL/min/kg for CC[C@@]1(O)C(=O)OCc2c1cc1n(c2=O)Cc2c-1nc1cc(F)c(C)c3c1c2[C@@](C)(O)CC3 (single isomer, unassigned) [Compound 13-84] .
OUT: NOT MET

IN: Check if CLint scaled falls below 40 mL/min/kg for CC[C@@]1(O)C(=O)OCc2c1cc1n(c2=O)Cc2c-1nc1cc(F)c(C)c3c1c2[C@@](C)(N)CC3 (single isomer, unassigned) [Compound 8-71, hydrochloride] .
OUT: NOT MET
